test system: Leishmania tropica; assay: Percentage of growth inhibition of wild type Leishmania tropica Lines at 7 uM; assay type: functional
Returns yes (1) if the recorded inhibition at 7 µM is greater than or equal to 10%, and no (0) otherwise.

COMPOUND	CATEGORY
CC(=O)O[C@H]1[C@@H](OC(=O)c2ccco2)C[C@](C)(O)C23OC(C)(C)C(C[C@H](OC(=O)c4ccco4)[C@]12C)[C@H]3OC(=O)c1ccco1 (stereo not given in full)	yes (1)
CC(=O)O[C@H]1CC[C@](C)(O)C23OC(C)(C)C(C[C@H](OC(=O)c4ccco4)[C@]12C)[C@H]3OC(=O)c1ccco1 (stereo not given in full)	yes (1)
CC(=O)OC[C@]12[C@@H](OC(=O)c3ccccc3)CC3[C@@H](OC(=O)c4ccccc4)C1(OC3(C)C)[C@@](C)(O)C[C@H](OC(C)=O)[C@@H]2OC(C)=O (stereo not given in full)	yes (1)
CC(=O)O[C@H]1C[C@](C)(O)C23OC(C)(C)C(C[C@H](OC(=O)c4ccco4)[C@]2(C)[C@H]1OC(C)=O)[C@H]3OC(=O)c1ccco1 (stereo not given in full)	no (0)
CC(=O)O[C@H]1[C@@H](OC(=O)c2ccccc2)C[C@](C)(O)C23OC(C)(C)C(C[C@H](OC(=O)c4ccco4)[C@]12C)[C@H]3OC(=O)c1ccco1 (stereo not given in full)	yes (1)
